Entries and their pKi
- TESTED ON: CYP3A4 (Homo sapiens)
- ASSAY COMMENT: Determination of compound Kiapp against recombinant CYP3A4 enzyme (BFC fluorescent substrate)
- Type: biochemical
- REPORTED CONDITIONS: Super. enzyme preparation, read-out: Kiapp (BFC, Super.)
pKi: −log10 of the molar value.
PARAMETER: pKi

molecule="COc1cncc(NS(=O)(=O)c2ccccc2C(=O)NCC2CCCC2)c1 [Example 375]" number=7.50
molecule="O=C(c1ccccc1S(=O)(=O)Nc1cccnc1)N1CCCCC1 [Example 67]" number=7.21
molecule="O=C(NCc1ccc2ncccc2c1)c1ccccc1S(=O)(=O)Nc1cccnc1 [Example 89]" number=6.66
molecule="COc1cncc(NS(=O)(=O)c2ccccc2C(=O)NCCc2ccc(F)c(F)c2)c1 [Example 137]" number=8.14
molecule="CCOc1cncc(NS(=O)(=O)c2ccccc2C(=O)N2CCCC(C)(C)C2)c1 [Example 298]" number=7.81
molecule="Cc1cncc(NS(=O)(=O)c2ccccc2C(=O)N2CCC(C)CC2)c1 [Example 363]" number=7.44
molecule="CN(c1cccnc1)S(=O)(=O)c1ccccc1C(=O)NCC1CCCC1 [Example 332]" number=7.21
molecule="CC1CCN(C(=O)c2ccccc2S(=O)(=O)N(C)c2cccnc2)CC1 [Example 356]" number=6.83
molecule="Nc1cncc(NS(=O)(=O)c2ccccc2C(=O)NCc2ccc(F)c(F)c2)c1 [Example 117]" number=7.83
molecule="COc1cncc(NS(=O)(=O)c2ccccc2C(=O)NCc2cccc(Cl)c2Cl)c1 [Example 185]" number=8.55
molecule="O=C(NCC1CCCC1)c1ccccc1S(=O)(=O)Nc1cccnc1 [Example 64]" number=7.89
molecule="CC1CCN(C(=O)c2ccccc2S(=O)(=O)Nc2cccnc2)CC1 [Example 41]" number=7.52
molecule="CN(CC1CCCC1)C(=O)c1ccccc1S(=O)(=O)Nc1cccnc1 [Example 324]" number=7.66
molecule="Cc1cncc(NS(=O)(=O)c2ccccc2C(=O)NCc2ccc3c(c2)CCO3)c1 [Example 94]" number=7.59
molecule="COc1cncc(NS(=O)(=O)c2ccccc2C(=O)NCCc2ccncc2)c1 [Example 383]" number=7.51
molecule="COC[C@@H]1[C@@H]2C[C@@H]3[C@H]1CN(C(=O)c1ccccc1S(=O)(=O)Nc1cncc(OC)c1)[C@@H]3C2 [Example 194]" number=7.16
molecule="CN(Cc1ccc(F)c(F)c1)C(=O)c1ccccc1S(=O)(=O)Nc1cncc(F)c1 [Example 163]" number=7.24
molecule="CN(Cc1ccccc1)C(=O)c1ccccc1S(=O)(=O)Nc1cccnc1 [Example 55]" number=7.85
molecule="COc1cncc(NS(=O)(=O)c2ccccc2C(=O)NC2CCCC(C)C2)c1 (stereo not drawn) [Example 202]" number=7.48
molecule="Cc1cncc(NS(=O)(=O)c2ccccc2C(=O)NCCc2ccccc2F)c1 [Example 227]" number=8.07
molecule="CCN(C(=O)c1ccccc1S(=O)(=O)Nc1cncc(OC)c1)C(C)C [Example 109]" number=7.43
molecule="COCCN(C(=O)c1ccccc1S(=O)(=O)Nc1cccnc1)C(C)C [Example 128]" number=7.26
molecule="CCOc1ccncc1NS(=O)(=O)c1ccccc1C(=O)N(C)CCOC [Example 160]" number=6.79
molecule="COc1cncc(NS(=O)(=O)c2ccccc2C(=O)NC2CC3CCC2C3)c1 (stereo not drawn) [Example 215]" number=7.36
molecule="O=C(NCCc1ccccn1)c1ccccc1S(=O)(=O)Nc1cccnc1 [Example 66]" number=6.68
molecule="Cc1ccncc1NS(=O)(=O)c1ccccc1C(=O)N(C)Cc1ccc(C(F)(F)F)cc1 [Example 165]" number=7.53
molecule="CCCCCN(C)C(=O)c1ccccc1S(=O)(=O)Nc1cnccc1OCC [Example 272]" number=8.25
molecule="COc1cncc(NS(=O)(=O)c2ccccc2C(=O)NC2CCC(C)CC2)c1 (stereo not drawn) [Example 149]" number=7.91
molecule="CCCCNC(=O)c1ccccc1S(=O)(=O)Nc1cncc(OCC)c1 [Example 306]" number=7.60
molecule="COc1cncc(NS(=O)(=O)c2ccccc2C(=O)N(C)C(C)C)c1 [Example 282]" number=7.24
molecule="CCOc1ccncc1NS(=O)(=O)c1ccccc1C(=O)NC(C)(C)C [Example 249]" number=7.42
molecule="CC[C@H](C)NC(=O)c1ccccc1S(=O)(=O)Nc1cncc(OC)c1 [Example 102]" number=7.25
molecule="Cc1ccc(CNC(=O)c2ccccc2S(=O)(=O)Nc2cnccc2C)cc1F [Example 166]" number=7.45
molecule="CCOc1ccncc1NS(=O)(=O)c1ccccc1C(=O)NC(C)C1CC1 (stereo not drawn) [Example 270]" number=7.40
molecule="CN(Cc1ccccc1F)C(=O)c1ccccc1S(=O)(=O)Nc1cccnc1 [Example 73]" number=7.97
molecule="Cc1ccccc1CCNC(=O)c1ccccc1S(=O)(=O)Nc1cnccc1C [Example 177]" number=8.46

* * *

- TESTED ON: CYP3A4 (Homo sapiens, UniProt P08684)
- Sequence (P08684 whole entry): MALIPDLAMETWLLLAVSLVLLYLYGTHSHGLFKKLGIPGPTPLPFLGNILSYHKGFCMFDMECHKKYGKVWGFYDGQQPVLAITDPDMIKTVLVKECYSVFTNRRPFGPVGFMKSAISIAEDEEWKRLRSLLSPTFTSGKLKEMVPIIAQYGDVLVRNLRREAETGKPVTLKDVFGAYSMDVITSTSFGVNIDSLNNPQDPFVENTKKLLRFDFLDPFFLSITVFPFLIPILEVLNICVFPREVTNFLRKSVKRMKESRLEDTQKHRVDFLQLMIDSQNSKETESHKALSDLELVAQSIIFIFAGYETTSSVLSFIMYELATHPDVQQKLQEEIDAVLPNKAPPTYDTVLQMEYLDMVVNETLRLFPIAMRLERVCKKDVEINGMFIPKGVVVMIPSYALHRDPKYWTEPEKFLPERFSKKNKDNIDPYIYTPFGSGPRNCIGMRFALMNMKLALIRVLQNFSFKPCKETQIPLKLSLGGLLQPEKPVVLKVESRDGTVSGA
- ASSAY COMMENT: Determination of compound Kiapp against recombinant CYP3A4 enzyme (BFC fluorescent substrate)
- Format: biochemical
- REPORTED CONDITIONS: Baculo. enzyme preparation, read-out: Kiapp (BFC, Baculo.)
PARAMETER: Ki (nM)

smiles_text=O=C(c1ccccc1S(=O)(=O)Nc1cccnc1)N1CCCCC1 tested_on="CYP3A4 (Homo sapiens, UniProt P08684)" parameter=Ki number=844
smiles_text=COc1cncc(NS(=O)(=O)c2ccccc2C(=O)NCc2ccc(C)c(Cl)c2)c1 tested_on="CYP3A4 (Homo sapiens, UniProt P08684)" parameter=Ki number=19.6
smiles_text=COC[C@@H]1[C@@H]2C[C@@H]3[C@H]1CN(C(=O)c1ccccc1S(=O)(=O)Nc1cncc(OC)c1)[C@@H]3C2 tested_on="CYP3A4 (Homo sapiens, UniProt P08684)" parameter=Ki number=376
smiles_text=Cc1cncc(NS(=O)(=O)c2ccccc2C(=O)NCCc2ccccc2C)c1 tested_on="CYP3A4 (Homo sapiens, UniProt P08684)" parameter=Ki number=4.3

* * *

Entries and their pKi
- TESTED ON: UniProtKB P08684
- ASSAY COMMENT: Determination of compound Kiapp against recombinant CYP3A4 enzyme (BFC fluorescent substrate)
- Type: biochemical
- REPORTED CONDITIONS: Super. enzyme preparation, read-out: Kiapp (BFC, Super.)
pKi: −log10 of the molar value.
PARAMETER: pKi

molecule="Cc1cncc(NS(=O)(=O)c2ccccc2C(=O)N(C)CCC(C)C)c1 [Example 348]" number=8.33
molecule="Cc1ccncc1NS(=O)(=O)c1ccccc1C(=O)N(C)Cc1ccccc1 [Example 139]" number=7.29
molecule="COc1ccccc1CNC(=O)c1ccccc1S(=O)(=O)Nc1cccnc1 [Example 90]" number=7.60
molecule="Cc1ccccc1CNC(=O)c1ccccc1S(=O)(=O)Nc1cccnc1 [Example 74]" number=8.32
molecule="COc1cncc(NS(=O)(=O)c2ccccc2C(=O)N(CC(C)O)C(C)C)c1 (stereo not drawn) [Example 99]" number=6.65
molecule="COc1cncc(NS(=O)(=O)c2ccc(F)cc2C(=O)N(C)C(C)C)c1 [Example 304]" number=6.77
molecule="CCOc1cncc(NS(=O)(=O)c2ccccc2C(=O)NCCC(C)C)c1 [Example 296]" number=8.03
molecule="COc1cncc(NS(=O)(=O)c2ccccc2C(=O)NCCCc2ccccc2OC)c1 [Example 234]" number=8.09
molecule="COc1ccncc1NS(=O)(=O)c1ccccc1C(=O)N(C)Cc1cccc(F)c1 [Example 104]" number=7.63

* * *

Entries and their pIC50
- TESTED ON: CYP3A4 (Homo sapiens, UniProt P08684)
- ASSAY COMMENT: Determination of IC50 against CYP3A4 by measurement of inhibition of midazolam metabolism (human liver microsomes, 1-hydroxymidazolam by LC-MS/MS)
- Format: biochemical
- Parameters: 0.1 mg/mL human liver microsomes
- REPORTED CONDITIONS: 2 μM midazolam, 0.1 mg/mL human liver microsomes
pIC50: −log10 of the molar value.
PARAMETER: pIC50

compound="COc1cncc(NS(=O)(=O)c2ccccc2C(=O)N2CCCCC2)c1 [Example 16]" sign_qualifier== number=7.19
compound="CCOc1ccccc1CNC(=O)c1ccccc1S(=O)(=O)Nc1cccnc1 [Example 72]" sign_qualifier== number=7.57
compound="COc1cncc(NS(=O)(=O)c2ccccc2C(=O)NC(C)C2CC2)c1 (centres unmarked) [Example 311]" sign_qualifier== number=7.47
compound="Cc1cncc(NS(=O)(=O)c2ccccc2C(=O)N(C)CCc2ccccc2C)c1 [Example 154]" sign_qualifier== number=8.22
compound="CC(C)(CN1CCCC1)NC(=O)c1ccccc1S(=O)(=O)Nc1cccnc1 [Example 3]" sign_qualifier=< number=6.12

* * *

Entries and their pKi
- TESTED ON: CYP3A4 (Homo sapiens, UniProt P08684)
- ASSAY COMMENT: Determination of compound Kiapp against recombinant CYP3A4 enzyme (BFC fluorescent substrate)
- Assay type: biochemical
- REPORTED CONDITIONS: Baculo. enzyme preparation, read-out: Kiapp (BFC, Baculo.)
pKi: −log10 of the molar value.
PARAMETER: pKi

molecule=O=C(NCCCc1ccccn1)c1ccccc1S(=O)(=O)Nc1cccnc1 tested_on="CYP3A4 (Homo sapiens, UniProt P08684)" sign_qualifier=< number=6.00
molecule="COc1cncc(NS(=O)(=O)c2ccccc2C(=O)NC2CCC(C)CC2)c1 (stereo not drawn)" tested_on="CYP3A4 (Homo sapiens, UniProt P08684)" sign_qualifier== number=6.68
molecule=CCN(Cc1ccccc1)C(=O)c1ccccc1S(=O)(=O)Nc1cccnc1 tested_on="CYP3A4 (Homo sapiens, UniProt P08684)" sign_qualifier== number=6.80
molecule=COc1cncc(NS(=O)(=O)c2ccc(Cl)cc2C(=O)N(C)C(C)C)c1 tested_on="CYP3A4 (Homo sapiens, UniProt P08684)" sign_qualifier== number=6.09
molecule="Cc1cncc(NS(=O)(=O)c2ccccc2C(=O)NC(C)C2CC2)c1 (stereo not drawn)" tested_on="CYP3A4 (Homo sapiens, UniProt P08684)" sign_qualifier== number=6.60
molecule="COc1cncc(NS(=O)(=O)c2ccccc2C(=O)NC(C)C2CC2)c1 (stereo not drawn)" tested_on="CYP3A4 (Homo sapiens, UniProt P08684)" sign_qualifier== number=6.68
molecule=COc1cncc(NS(=O)(=O)c2ccccc2C(=O)NCCN2CCCCC2)c1 tested_on="CYP3A4 (Homo sapiens, UniProt P08684)" sign_qualifier=< number=6.00
molecule=CCCCCN(C)C(=O)c1cc(Cl)ccc1S(=O)(=O)Nc1cncc(OC)c1 tested_on="CYP3A4 (Homo sapiens, UniProt P08684)" sign_qualifier== number=6.96
molecule=CCOc1cncc(NS(=O)(=O)c2ccccc2C(=O)NCCc2ccccc2C)c1 tested_on="CYP3A4 (Homo sapiens, UniProt P08684)" sign_qualifier== number=8.80
